assay: AUC (0 to infinity) in spontaneously hypertensive Wistar rat at 10 mg/kg, po; assay type: ADME, organism-based; design: dose 10 mg/kg, route po; conditions: in vivo
READOUT_TYPE: AUC(0-inf) (ng·h/mL)
Answers are plain numbers, in ng·h/mL.

Which value of AUC(0-inf) has been reported for O=C(O)c1c(-c2ccccc2)n(C(=O)c2ccccc2)c2ccccc12 in the records? 260

----------
Consider the following compounds; for each one, report its IC50.
Molecular target: Type-1 angiotensin II receptor (Homo sapiens, UniProt P30556)
Sequence (P30556 whole entry): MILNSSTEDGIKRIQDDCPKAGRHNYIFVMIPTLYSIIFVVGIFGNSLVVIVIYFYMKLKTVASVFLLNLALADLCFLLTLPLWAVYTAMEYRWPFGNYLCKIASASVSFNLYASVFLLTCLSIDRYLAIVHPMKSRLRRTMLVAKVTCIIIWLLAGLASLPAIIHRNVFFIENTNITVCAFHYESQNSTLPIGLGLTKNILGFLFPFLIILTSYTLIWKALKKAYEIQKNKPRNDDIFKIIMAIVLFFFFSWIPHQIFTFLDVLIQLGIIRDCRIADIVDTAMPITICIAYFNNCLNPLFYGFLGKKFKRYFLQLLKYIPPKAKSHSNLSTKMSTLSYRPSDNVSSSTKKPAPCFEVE
Assay: Displacement of [125I]-Angiotensin II from Angiotensin II type-1 receptor in VSMC cells (unknown origin) by competition radioligand binding assay
Numbers only, in nM.

Consider the following illustrative entries.
Cc1ccc(S(=O)(=O)n2c(COCc3ccccc3)c(C(=O)O)c3ccccc32)cc1 22.4
O=C(O)c1c(-c2ccccc2)n(C(=O)c2ccccc2)c2ccccc12 12.3
CCCCc1c(C(=O)O)c2ccccc2n1S(=O)(=O)c1ccc(C)cc1 28.3
CCCCc1c(C(=O)O)c2ccccc2n1S(C)(=O)=O 29.2
CS(=O)(=O)n1c(CO)c(C(=O)O)c2ccccc21 27.1

// each compound listed below needs its IC50
1. O=C(O)c1c(CO)n(C(=O)c2ccccc2)c2ccccc12
2. CCCCc1c(C(=O)O)c2ccccc2n1C(=O)c1ccccc1
3. O=C(O)c1c(COCc2ccccc2)n(C(=O)c2ccccc2)c2ccccc12
4. Cc1ccc(S(=O)(=O)n2c(-c3ccccc3)c(C(=O)O)c3ccccc32)cc1

31.1
22.2
32.2
18

Please give IC50 for each item listed below.
1. CS(=O)(=O)n1c(-c2ccccc2)c(C(=O)O)c2ccccc21
2. Cc1ccc(S(=O)(=O)n2c(CO)c(C(=O)O)c3ccccc32)cc1
3. CS(=O)(=O)n1c(COCc2ccccc2)c(C(=O)O)c2ccccc21

11.3
24.2
25.5

----------
target: Type-1 angiotensin II receptor (Homo sapiens); test: Displacement of [125I]-Angiotensin II from Angiotensin II type-1 receptor in VSMC cells (unknown origin) assessed as inhibition constant by competition radioligand binding assay; assay type: cell-based
Please provide measured Ki for the entries that follow.
Don't forget the unit after the value.

Worked examples, 3 molecules total:
CS(=O)(=O)n1c(CO)c(C(=O)O)c2ccccc21 0.0263 µM
Cc1ccc(S(=O)(=O)n2c(COCc3ccccc3)c(C(=O)O)c3ccccc32)cc1 0.0217 µM
CCCCc1c(C(=O)O)c2ccccc2n1C(=O)c1ccccc1 0.0219 µM

Give the reported Ki for CS(=O)(=O)n1c(COCc2ccccc2)c(C(=O)O)c2ccccc21 (system: Type-1 angiotensin II receptor (Homo sapiens)). 0.0247 µM
